Entry source: patent US20250215029A1

test.target: pY705-STAT3 in PBMC (Homo sapiens, UniProt P40763)
Construct: Cryopreserved Peripheral Blood Mononuclear Cells (PBMC) are from AllCells; host or cells: cryopreserved PBMC
Sequence (P40763 whole entry): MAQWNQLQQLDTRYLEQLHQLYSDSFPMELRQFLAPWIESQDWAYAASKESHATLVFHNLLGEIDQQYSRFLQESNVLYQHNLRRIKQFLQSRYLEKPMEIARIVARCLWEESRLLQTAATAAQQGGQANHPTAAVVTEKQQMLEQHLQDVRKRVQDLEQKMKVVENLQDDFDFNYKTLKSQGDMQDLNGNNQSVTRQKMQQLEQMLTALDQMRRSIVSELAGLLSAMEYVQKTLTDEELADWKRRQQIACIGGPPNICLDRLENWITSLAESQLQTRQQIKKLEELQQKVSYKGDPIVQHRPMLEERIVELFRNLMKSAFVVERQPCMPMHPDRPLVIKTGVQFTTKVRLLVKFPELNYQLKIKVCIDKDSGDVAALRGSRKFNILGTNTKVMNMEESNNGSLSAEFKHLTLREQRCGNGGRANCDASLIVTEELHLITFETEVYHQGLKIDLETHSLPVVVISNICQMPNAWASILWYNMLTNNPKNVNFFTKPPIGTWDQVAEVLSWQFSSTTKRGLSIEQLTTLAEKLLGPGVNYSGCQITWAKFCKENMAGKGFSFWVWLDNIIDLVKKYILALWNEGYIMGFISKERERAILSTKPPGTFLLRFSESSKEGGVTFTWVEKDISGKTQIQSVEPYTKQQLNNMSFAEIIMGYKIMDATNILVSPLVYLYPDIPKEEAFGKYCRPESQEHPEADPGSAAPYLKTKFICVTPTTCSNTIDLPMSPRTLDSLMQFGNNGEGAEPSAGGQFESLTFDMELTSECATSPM
assay.procedure: MSD-pSTAT-PBMC Assay (pSTAT3, IL-6 stimulated)
Type: cell-based
test.context: PBMC, compound 3 hrs, then 10 ng/mL IL-6 for 10 min; Table 115; read-out: STAT3
Experimental: Cryopreserved Peripheral Blood Mononuclear Cells (PBMC) are from AllCells. Recombinant Human IL-4 and IL-6 are from Peprotech. […] Cyropreserved PBMCs were thawed out and allowed to recover overnight in IMDM+10% heat-inactivated FBS prior to plating 50,000 (STAT3) or 25,000 (STAT6) cells per well in 96-well U-bottom tissue culture plates. […] Assay plates were then washed and 150 μL of 1× Read Buffer-T (MSD) was added to each well prior to reading on an SQ120 MSD Plate Reader. […]
Parameter: IC50. Scope: all listed entries.

Using the record for CCCOC(=O)[C@H](C)NP(=O)(Cc1ccc2sc(C(=O)N[C@H]3C[C@@H](C)C[C@H]4CC[C@@H](C(=O)N5CC(c6cnccc6N(C)C)C5)N4C3=O)cc2c1)Oc1ccccc1 (stereo partly shown) , report its IC50. < 100 nM

Using the record for CCCOC(=O)[C@H](C)NP(=O)(Oc1ccccc1)C(F)c1ccc2sc(C(=O)N[C@H]3CCCC[C@H]4CC[C@@H](C(=O)N5CC(OCC(F)F)(c6cccnc6)C5)N4C3=O)cc2c1 (stereo partly shown) , report its IC50. < 100 nM

Using the record for CCCCOC(=O)[C@H](C)NP(=O)(Oc1cccc2ccccc12)C(F)(F)c1ccc2ccc(C(=O)N[C@H]3CCCC[C@H]4CC[C@@H](C(=O)N5CC(c6ccccc6)CC56CC6)N4C3=O)cc2c1 (stereo partly shown) , report its IC50. > 3000 nM
